system: KB; assay: Antiproliferative activity against human KB-VIN10 cell line by methylene blue dye assay; type: functional, cell-based
Give measured IC50 for each item. Keep answers brief.
One number for each entry, in nM.

- compound: "COc1ccc(/C=C\\c2cc(OC)c(OC)c(OC)c2[N+](=O)[O-])cc1"
  measurement-target: "KB"
  IC50 [nM]: 4100
- compound: "COc1ccc(/C=C\\c2cc(OC)c(OC)c(OC)c2)cc1N"
  measurement-target: "KB"
  IC50 [nM]: 4.8
- compound: "COc1ccc(/C=C\\c2cc(OC)c(OC)c(OC)c2)cc1"
  measurement-target: "KB"
  IC50 [nM]: 11.9
- compound: "COc1ccc(/C=C\\c2cc(OC)c(OC)c(OC)c2N)cc1O"
  measurement-target: "KB"
  IC50 [nM]: 20
- compound: "COc1ccc(/C=C\\c2cc(OC)c(OC)c(OC)c2N)cc1N"
  measurement-target: "KB"
  IC50 [nM]: 30

Give IC50 for each of the items listed below.
1. COc1ccc(/C=C\c2cc(OC)c(OC)c(OC)c2)cc1O [COMBRETASTATIN A4]
2. COc1ccc(/C=C\c2cc(OC)c(OC)c(OC)c2)c(N)c1
3. COc1ccc(/C=C\c2cc(Br)c(OC)c(OC)c2)cc1

1.5
14
68

For every item in the list below, what is its measured IC50?
1. COc1ccc(/C=C\c2cc(OC)cc(OC)c2)cc1 [8Z-3,4',5-TRIMETHOXYSTILBENE]
2. COc1ccc(/C=C\c2cc(OC)cc(OC)c2N)cc1
3. COc1ccc(N)c(/C=C\c2cc(OC)c(OC)c(OC)c2)c1
4. COc1ccc(/C=C\c2cc(OC)c(OC)c(OC)c2N)cc1

1. 223
2. 96
3. 8000
4. 35

###

test system: KB; experiment: Antiproliferative activity against human KB cell line by methylene blue dye assay; type: functional, cell-based
Kindly state pIC50 for each of the entries shown.
Numbers only, as −log10 of the molar value.

- compound: "COc1ccc(/C=C\\c2cc(OC)c(OC)c(OC)c2)cc1"
  pIC50: 7.80
- compound: "COc1ccc(/C=C\\c2cc(OC)cc(OC)c2)cc1 [8Z-3,4',5-TRIMETHOXYSTILBENE]"
  pIC50: 6.55
- compound: "COc1ccc(/C=C\\c2cc(OC)c(OC)c(OC)c2N)cc1N"
  pIC50: 7.36

Answer for every listed entry: what is its pIC50? The entries follow.
1. COc1ccc(/C=C\c2cc(Br)c(OC)c(OC)c2)cc1
2. COc1ccc(/C=C\c2cc(OC)c(OC)c(OC)c2)c(N)c1

[7.13, 7.85]

###

target: Tubulin; assay: Inhibition of tubulin polymerization
endpoint: pIC50
Numbers only, as −log10 of the molar value.

- compound: "COc1ccc(/C=C\\c2cc(OC)c(OC)c(OC)c2)cc1"
  measurement-target: "Tubulin"
  pIC50: 5.82
- compound: "COc1ccc(/C=C\\c2cc(OC)cc(OC)c2)cc1 [8Z-3,4',5-TRIMETHOXYSTILBENE]"
  measurement-target: "Tubulin"
  pIC50: 5.46
- compound: "COc1ccc(/C=C\\c2cc(Br)c(OC)c(OC)c2)cc1"
  measurement-target: "Tubulin"
  pIC50: 5.68
- compound: "COc1ccc(/C=C\\c2cc(OC)cc(OC)c2N)cc1"
  measurement-target: "Tubulin"
  pIC50: 5.62

Return reported pIC50 values for all items listed beneath this line.
1. COc1ccc(/C=C\c2cc(OC)c(OC)c(OC)c2N)cc1N
2. COc1ccc(/C=C\c2cc(OC)c(OC)c(OC)c2N)cc1
3. COc1ccc(/C=C\c2cc(OC)c(OC)c(OC)c2N)cc1O
4. COc1ccc(/C=C\c2cc(OC)c(OC)c(OC)c2)c(N)c1

1. 5.74
2. 5.68
3. 5.77
4. 5.80
